System: NCI-H226
assay.text: NCI tumour cell line growth inhibition, 48 h
Active and inactive are the calls of the source. Cut-off read from the data, not from the text of the source: active = GI50 up to about 1.1 µM and inactive = higher.
property.label: GI50

# count of solved cases: 5
O=c1c2cc(-c3ccccc3)sc2nc2sc(-c3ccccc3)nn12 = > 100 µM (inactive)
O=C1CCc2cc3c(cc21)CC1(Cc2ccccc2C1)C3 = 12.9 µM (inactive)
OC1C=C2C3CN(Cc4cc5c(cc43)OCO5)[C@H]2C[C@@H]1O (stereo partly specified) = > 100 µM (inactive)
Oc1ccc(Cl)cc1CN1CCN(Cc2cc(Cl)ccc2O)C1 = 1.39 µM (inactive)
Cc1cc(C)cc(Nc2nnc3n2S(=O)(=O)c2cc(C#N)c(Cl)cc2S3)c1 = 10.6 µM (inactive)

Fill in: GI50 on NCI-H226, entry CCC(C(=O)O)c1ccc(OCc2ccccc2)cc1 (stereo unspecified) > 100 µM (inactive)

Fill in: GI50 on NCI-H226, entry CC(=O)C1=CCC2c3[nH]c4ccccc4c3CCN2C1 (stereo unspecified) > 100 µM (inactive)

Fill in: GI50 on NCI-H226, entry NC(=S)N/N=C/C1NCCC2CCCCC21 (stereo unspecified) 0.314 µM (active)

Fill in: GI50 on NCI-H226, entry COc1ccc(C2C(Cl)C(=O)N2NC(=O)c2ccc(N)cc2)cc1OC (stereo unspecified) 18.7 µM (inactive)

Fill in: GI50 on NCI-H226, entry COC(=O)C(CNC(=O)/C=C/c1ccc(OC)c(OC)c1)NC(=O)/C=C/c1ccc(OC)c(OC)c1 (stereo unspecified) > 100 µM (inactive)

Fill in: GI50 on NCI-H226, entry FC(F)(F)c1ccccc1C1SCc2nc3ccccc3n21 (stereo unspecified) 39.4 µM (inactive)
